Entry source: ChEMBL document CHEMBL1201861

Consider the following molecules; for each one, report its IC50.
- Tested on: RMG-I;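 further: growth inhibition of human RMG-I cells, read out with a cell viability assay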
- Protocol Summary: cells
- Assay type: functional, cell-based, Homo sapiens
- Particulars: Homo sapiens, RMG-I
- Description: SANGER: Inhibition of human RMG-I cell growth in a cell viability assay.

GET /values?readout=IC50&item= COC(=O)CNC(=O)C(=O)OC
820 µM

Likewise for CC(=O)O[C@@H]1[C@@H](OC(C)=O)[C@@H](O)[C@H](Oc2c(-c3ccc(O)cc3)oc3cc(O)cc(O)c3c2=O)O[C@H]1C ?
> 10 µM

Do the same for COc1ccc(-c2ccc3c(N4CCOC[C@@H]4C)nc(N4CCOC[C@@H]4C)nc3n2)cc1CO [AZD-8055] please
> 2 µM

// same read-out, input: CN(Cc1cnc2nc(N)nc(N)c2n1)c1ccc(C(=O)N[C@@H](CCC(=O)O)C(=O)O)cc1 [METHOTREXATE]
> 0.2 µM

Can you check O=C(NOCC1CC1)c1ccc(F)c(F)c1Nc1ccc(I)cc1Cl [CI-1040] next?
> 10 µM

Query C[C@]1(O)C[C@@H](c2nc(-c3ccc4ccc(-c5ccccc5)nc4c3)c3c(N)nccn32)C1 [LINSITINIB] next
> 2.56 µM

CC(=O)O[C@@]12CO[C@@H]1C[C@H](O)[C@@]1(C)C(=O)[C@H](O)C3=C(C)[C@@H](OC(=O)[C@H](O)[C@@H](NC(=O)OC(C)(C)C)c4ccccc4)C[C@@](O)([C@@H](OC(=O)c4ccccc4)[C@H]21)C3(C)C [DOCETAXEL] , same question.
> 0.01 µM
